Where do these numbers come from? They come from ChEMBL document CHEMBL5634159.

Assay text: Elimination half life in BALB/c mouse at 10 nmol measured for 8 hrs
Assay type: ADME
Settings: in vivo, read-out: beta t1/2 (converted)
Assay metric: half-life (h)
Give bare numbers, in h.

Q: Annotate the molecule CC1(C)C(/C=C/C2=C(Oc3ccc(C[C@H](NC(=O)c4ccc(CCCCc5cc6c(=O)[nH]c(N)nc6[nH]5)cc4)C(=O)O)cc3)C(=C/C=C3/N(CCCCS(=O)(=O)O)c4ccccc4C3(C)C)/CCC2)=[N+](CCCCS(=O)(=O)[O-])c2ccccc21 with its measured half-life.
Ans: 1

====

Target: Folate receptor alpha (Homo sapiens, UniProt P15328)
Sequence (P15328 whole entry): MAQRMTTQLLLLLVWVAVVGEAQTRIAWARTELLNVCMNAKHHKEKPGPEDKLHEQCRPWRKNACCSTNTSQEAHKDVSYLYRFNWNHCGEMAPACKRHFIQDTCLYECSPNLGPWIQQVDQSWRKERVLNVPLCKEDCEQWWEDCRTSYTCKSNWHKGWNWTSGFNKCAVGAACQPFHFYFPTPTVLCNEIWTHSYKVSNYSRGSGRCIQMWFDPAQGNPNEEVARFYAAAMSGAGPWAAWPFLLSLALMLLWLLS
Assay text: Binding affinity to Folate receptor alpha in human KB cells assessed as dissociation constant
What Kd was measured for each of the following?
One number for each entry, in nM.

CC1(C)C(/C=C/C2=C(Oc3ccc(C[C@H](NC(=O)c4ccc(NCc5cnc6nc(N)[nH]c(=O)c6n5)cc4)C(=O)O)cc3)C(=C/C=C3/N(CCCCS(=O)(=O)O)c4ccccc4C3(C)C)/CCC2)=[N+](CCCCS(=O)(=O)[O-])c2ccccc21	22.1
CC1(C)C(/C=C/C2=C(SC[C@H](NC(=O)CNC(=O)Cc3cc4c(=O)[nH]c(N)nc4[nH]3)C(=O)O)C(=C/C=C3/N(CCCCS(=O)(=O)O)c4ccccc4C3(C)C)/CCC2)=[N+](CCCCS(=O)(=O)[O-])c2ccccc21	81.9
CC1(C)C(/C=C/C2=C(Oc3ccc(C[C@H](NC(=O)c4ccc(CCCCc5cc6c(=O)[nH]c(N)nc6[nH]5)cc4)C(=O)O)cc3)C(=C/C=C3/N(CCCCS(=O)(=O)O)c4ccccc4C3(C)C)/CCC2)=[N+](CCCCS(=O)(=O)[O-])c2ccccc21	14.2
CC1(C)C(/C=C/C2=C(Oc3ccc(C[C@H](NC(=O)CNC(=O)Cc4cc5c(=O)[nH]c(N)nc5[nH]4)C(=O)O)cc3)C(=C/C=C3/N(CCCCS(=O)(=O)O)c4ccccc4C3(C)C)/CCC2)=[N+](CCCCS(=O)(=O)[O-])c2ccccc21	39.8
CC1(C)C(/C=C/C2=C(SC[C@@H](NC(=O)CC[C@H](NC(=O)CNC(=O)Cc3cc4c(=O)[nH]c(N)nc4[nH]3)C(=O)O)C(=O)O)C(=C/C=C3/N(CCCCS(=O)(=O)O)c4ccccc4C3(C)C)/CCC2)=[N+](CCCCS(=O)(=O)[O-])c2ccccc21	61.2

Q: Dear colleague, please send me the reported Kd for CC1(C)C(/C=C/C2=C(Oc3ccc(C[C@H](NC(=O)c4ccc(CCCCc5cc6c(=O)[nH]c(N)nc6[nH]5)s4)C(=O)O)cc3)C(=C/C=C3/N(CCCCS(=O)(=O)O)c4ccccc4C3(C)C)/CCC2)=[N+](CCCCS(=O)(=O)[O-])c2ccccc21 when you can.
Ans: 10.3

====

Assay text: Drug uptake in BALB/c mouse liver xenografted with human KB cells at 10 nmol measured for 8 hrs
Type: ADME, tissue-based
Settings: in vivo
Assay metric: Drug uptake

CC1(C)C(/C=C/C2=C(Oc3ccc(C[C@H](NC(=O)CNC(=O)Cc4cc5c(=O)[nH]c(N)nc5[nH]4)C(=O)O)cc3)C(=C/C=C3/N(CCCCS(=O)(=O)O)c4ccccc4C3(C)C)/CCC2)=[N+](CCCCS(=O)(=O)[O-])c2ccccc21	Not Active
CC1(C)C(/C=C/C2=C(SC[C@H](NC(=O)CNC(=O)Cc3cc4c(=O)[nH]c(N)nc4[nH]3)C(=O)O)C(=C/C=C3/N(CCCCS(=O)(=O)O)c4ccccc4C3(C)C)/CCC2)=[N+](CCCCS(=O)(=O)[O-])c2ccccc21	Not Active
CC1(C)C(/C=C/C2=C(SC[C@@H](NC(=O)CC[C@H](NC(=O)CNC(=O)Cc3cc4c(=O)[nH]c(N)nc4[nH]3)C(=O)O)C(=O)O)C(=C/C=C3/N(CCCCS(=O)(=O)O)c4ccccc4C3(C)C)/CCC2)=[N+](CCCCS(=O)(=O)[O-])c2ccccc21	Not Active
